The measured values listed here are drawn from PubChem BioAssay (NCI).

test system: M14 melanoma; assay: NCI tumour cell line growth inhibition, 48 h
measurement_type: TGI (µM)
Please respond with the number in µM and leave the unit unwritten.

| compound | TGI / µM |
| --- | --- |
| CCN(CC)CCSCCCNc1c2ccc(Cl)cc2nc2ccc(OC)cc12 | 3.46 |
| C/C=C(\C)C(=O)N[C@H]1C(O)C[C@]2(C)C3CC[C@@]4(C)C(CC[C@@H]4C(C)N(C)C)C3CCC2C1O (stereo partly drawn) | 3.88 |
| COC(=O)[C@@H](C)C[C@H](Cc1ccccc1)NC(=O)c1csc([C@@H](C[C@H](C(C)C)N(C)C(=O)[C@H](C)NC(=O)[C@H]2CCCCN2C)OC(C)=O)n1 | 11.3 |

Proceed to the following item.
Tell me the measured TGI of CNCCC=C1c2ccccc2CCc2ccccc21 , please.
14.7
